Values compiled from patent EP4782434A1.

experimental-target: Polθ ATPase (Homo sapiens)
Construct: purified truncated POLQ-N protein (aa 1-894, N-terminal 6-His tag); 6-His (N)
method-notes: Polθ ATPase activity assay (ADP-Glo Kinase Assay kit)
Type: biochemical
experimental-parameters: specific values; truncated POLQ-N protein (aa 1-894) 1 nM, 50 nM ssDNA, 50 µM ATP
assay-endpoint: IC50

>>> measured_value("COc1ccc(C(F)F)cc1-c1cc(C)ccc1C(=O)NS(=O)(=O)Cc1ccc([C@H](C)OC)cc1 [cpd-3]")
"0.71 nM"
>>> measured_value("COc1ccc(C(F)F)cc1-c1cc(CC(=O)N(C)C)ccc1C(=O)NS(=O)(=O)Cc1ccc(C(C)C)cc1 [cpd-11]")
"0.53 nM"
>>> measured_value("COc1ccc(C(F)F)cc1-c1cc(C)ccc1C(=O)NS(=O)(=O)Cc1ccc(C(C)OC)nc1 (stereo not drawn) [cpd-20]")
"1.4 nM"

---

Catalogue of IC50 values
experimental-target: Polθ ATPase (Homo sapiens)
Construct: purified truncated POLQ-N protein (aa 1-894, N-terminal 6-His tag); 6-His (N)
method-notes: Polθ ATPase activity assay (ADP-Glo Kinase Assay kit)
Format: biochemical
experimental-parameters: class symbols; truncated POLQ-N protein (aa 1-894) 1 nM, 50 nM ssDNA, 50 µM ATP
assay-endpoint: IC50

>>> measured_value("COc1ccc(C(F)F)cc1-c1cc(C)ncc1C(=O)NS(=O)(=O)Cc1ccc([C@@H](C)OC)cc1 [cpd-9]")
"≤ 2 nM"
>>> measured_value("COc1ccc(C(F)F)cc1-c1cc(CC(=O)N(C)C)ccc1C(=O)NS(=O)(=O)Cc1ccc(C(C)C)cc1 [cpd-11]")
"≤ 2 nM"
>>> measured_value("COc1ccc(C(F)F)cc1-c1cc(C)ncc1C(=O)NS(=O)(=O)Cc1ccc([C@H](C)OC)cc1 [cpd-5]")
"≤ 2 nM"
>>> measured_value("COc1ccc(C(F)F)cc1-c1cc(CC(=O)N(C)C2CC2)ccc1C(=O)NS(=O)(=O)Cc1ccc(C(C)C)cc1 [cpd-12]")
"≤ 2 nM"
>>> measured_value("COc1cnc(C(F)F)cc1-c1cc(C)ccc1C(=O)NS(=O)(=O)Cc1ccc([C@@H](C)OC)cc1 [cpd-8]")
"≤ 2 nM"
>>> measured_value("[2H]C([2H])([2H])O[C@@H](C)c1ccc(CS(=O)(=O)NC(=O)c2ccc(C([2H])([2H])[2H])cc2-c2cc(Cl)ncc2OC)cc1 [cpd-17]")
"≤ 2 nM"
>>> measured_value("[2H]C([2H])([2H])Oc1cnc(C(F)F)cc1-c1cc(C([2H])([2H])[2H])ccc1C(=O)NS(=O)(=O)Cc1ccc([C@H](C)OC([2H])([2H])[2H])cc1 [cpd-18]")
"≤ 2 nM"
>>> measured_value("[2H]C([2H])([2H])O[C@@H](C)c1ccc(CS(=O)(=O)NC(=O)c2ccc(C([2H])([2H])[2H])cc2-c2cc(C(F)F)ncc2OC)cc1 [cpd-16]")
"≤ 2 nM"
>>> measured_value("COc1cnc(C(F)F)cc1-c1cc(C)ccc1C(=O)NS(=O)(=O)Cc1ccc([C@H](C)OC)cc1 [cpd-4]")
"≤ 2 nM"

---

method-notes: Pharmacokinetic study in rats
Format: in vivo
experimental-parameters: rat, plasma; male Wistar-Han rats, dose 30 mg/kg; route not stated in the table (oral gavage vehicle given)
assay-endpoint: Cmax (ng/mL)

>>> measured_value("[2H]C([2H])([2H])O[C@@H](C)c1ccc(CS(=O)(=O)NC(=O)c2ccc(C([2H])([2H])[2H])cc2-c2cc(Cl)ncc2OC)cc1")
8300

---

Catalogue of pIC50 values
experimental-target: Polθ ATPase (Homo sapiens)
Construct: purified truncated POLQ-N protein (aa 1-894, N-terminal 6-His tag); 6-His (N)
method-notes: Polθ ATPase activity assay (ADP-Glo Kinase Assay kit)
Type: biochemical
experimental-parameters: specific values; truncated POLQ-N protein (aa 1-894) 1 nM, 50 nM ssDNA, 50 µM ATP
pIC50: −log10 of the molar value.
assay-endpoint: pIC50

>>> measured_value("[2H]C([2H])([2H])O[C@@H](C)c1ccc(CS(=O)(=O)NC(=O)c2ccc(C([2H])([2H])[2H])cc2-c2cc(C(F)F)c(F)cc2OC)cc1")
8.82
>>> measured_value("COc1ccc(C(F)F)cc1-c1cc(CC(=O)N(C)C2CC2)ccc1C(=O)NS(=O)(=O)Cc1ccc(C(C)C)cc1")
9.00
>>> measured_value("COc1cnc(C(F)F)cc1-c1cc(C)ncc1C(=O)NS(=O)(=O)Cc1ccc([C@H](C)OC)cc1")
9.22
>>> measured_value("[2H]C([2H])([2H])O[C@@H](C)c1ccc(CS(=O)(=O)NC(=O)c2ccc(C([2H])([2H])[2H])cc2-c2cc(C(F)F)ncc2OC)cc1")
9.41
>>> measured_value("COc1ccc(C(F)F)cc1-c1cc(C)ncc1C(=O)NS(=O)(=O)Cc1ccc([C@H](C)OC)cc1")
9.30
>>> measured_value("[2H]C([2H])([2H])O[C@@H](C)c1ccc(CS(=O)(=O)NC(=O)c2ccc(C([2H])([2H])[2H])cc2-c2cc(Cl)ncc2OC)cc1")
8.85
>>> measured_value("[2H]C([2H])([2H])O[C@@H](C)c1ccc(CS(=O)(=O)NC(=O)c2ccc(C)cc2-c2cc(C(F)F)ncc2OC)cc1")
9.35
>>> measured_value("[2H]C([2H])([2H])Oc1cnc(C(F)F)cc1-c1cc(C([2H])([2H])[2H])ccc1C(=O)NS(=O)(=O)Cc1ccc([C@H](C)OC([2H])([2H])[2H])cc1")
8.85
>>> measured_value("COc1cnc(C(F)F)cc1-c1cc(C)ncc1C(=O)NS(=O)(=O)Cc1ccc([C@@H](C)OC)cc1")
8.96
>>> measured_value("COc1cnc(C(F)F)cc1-c1cc(C)ccc1C(=O)NS(=O)(=O)Cc1ccc([C@@H](C)OC)cc1")
9.14
>>> measured_value("COc1ccc(C(F)F)cc1-c1cc(Cc2nnc(C)o2)ccc1C(=O)NS(=O)(=O)Cc1ccc(C(C)C)cc1")
9.06
>>> measured_value("COc1ccc(C(F)F)cc1-c1cc(C)ccc1C(=O)NS(=O)(=O)Cc1ccc([C@@H](C)OC)cc1")
9.15
>>> measured_value("[2H]c1c([2H])c([C@H](C)OC([2H])([2H])[2H])c([2H])c([2H])c1CS(=O)(=O)NC(=O)c1ccc(C([2H])([2H])[2H])cc1-c1cc(Cl)ncc1OC")
8.96

---

experimental-target: Polθ ATPase (Homo sapiens, UniProt O75417)
Construct: purified truncated POLQ-N protein (aa 1-894, N-terminal 6-His tag); 6-His (N)
Sequence (O75417 1-894): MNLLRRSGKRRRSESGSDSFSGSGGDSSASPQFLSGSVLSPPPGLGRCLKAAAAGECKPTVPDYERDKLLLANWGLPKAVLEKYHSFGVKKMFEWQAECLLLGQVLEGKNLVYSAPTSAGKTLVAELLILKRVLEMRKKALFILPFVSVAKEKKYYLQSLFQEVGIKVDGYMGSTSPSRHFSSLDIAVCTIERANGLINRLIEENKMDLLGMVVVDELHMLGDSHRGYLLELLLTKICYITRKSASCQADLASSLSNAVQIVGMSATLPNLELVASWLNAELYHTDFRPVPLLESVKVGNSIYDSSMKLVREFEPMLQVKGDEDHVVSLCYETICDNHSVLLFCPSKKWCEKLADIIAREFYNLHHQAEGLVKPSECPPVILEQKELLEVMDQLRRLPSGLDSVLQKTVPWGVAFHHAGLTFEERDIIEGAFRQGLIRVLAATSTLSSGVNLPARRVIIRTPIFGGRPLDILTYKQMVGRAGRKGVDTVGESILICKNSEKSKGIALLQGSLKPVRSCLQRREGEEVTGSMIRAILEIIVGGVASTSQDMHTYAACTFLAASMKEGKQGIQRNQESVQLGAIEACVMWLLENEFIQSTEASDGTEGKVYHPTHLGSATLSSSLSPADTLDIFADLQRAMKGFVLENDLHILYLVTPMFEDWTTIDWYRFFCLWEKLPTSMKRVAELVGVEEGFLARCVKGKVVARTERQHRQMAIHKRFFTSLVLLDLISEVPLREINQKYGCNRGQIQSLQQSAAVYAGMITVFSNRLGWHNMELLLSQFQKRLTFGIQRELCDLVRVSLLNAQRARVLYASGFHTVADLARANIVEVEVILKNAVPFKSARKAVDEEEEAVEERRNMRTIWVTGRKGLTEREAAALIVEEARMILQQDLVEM
method-notes: Polθ ATPase activity assay (ADP-Glo Kinase Assay kit)
Type: biochemical
experimental-parameters: specific values; truncated POLQ-N protein (aa 1-894) 1 nM, 50 nM ssDNA, 50 µM ATP
Catalogue of IC50 values
assay-endpoint: IC50 (nM)

>>> measured_value("COc1ccc(C(F)F)cc1-c1cc(C)ccc1C(=O)NS(=O)(=O)Cc1ccc(C(OC)C(F)(F)F)cc1 (stereo not shown)")
1.6
>>> measured_value("COc1ccc(C(F)F)cc1-c1cc(C)ncc1C(=O)NS(=O)(=O)Cc1ccc([C@@H](C)OC)cc1")
0.52
>>> measured_value("COc1cnc(C(F)F)cc1-c1cc(C)ccc1C(=O)NS(=O)(=O)Cc1ccc([C@H](C)OC)cc1")
0.65
>>> measured_value("COc1cnc(Cl)cc1-c1cc(C)ncc1C(=O)Nc1nnc(OC[C@H]2COCCO2)s1 [Ref. 1, reference compound]")
2.2

---

Catalogue of IC50 values
Test system: DLD-1 BRCA2-/- cells
method-notes: DLD-1 BRCA2-/- cell proliferation assay (CellTiter-Glo, 10 days incubation)
Type: cell-based
experimental-parameters: Homo sapiens, 240 h, DLD-1 BRCA2-/- cell line, total incubation period of 10 days, read-out: DLD1 BRCA2^-/- IC50
assay-endpoint: IC50 (nM)

>>> measured_value("COc1ccc(C(F)F)cc1-c1cc(C)ccc1C(=O)NS(=O)(=O)Cc1ccc([C@H](C)OC)cc1")
24
>>> measured_value("[2H]C([2H])([2H])O[C@@H](C)c1ccc(CS(=O)(=O)NC(=O)c2ccc(C([2H])([2H])[2H])cc2-c2cc(C(F)F)ncc2OC)cc1")
24
>>> measured_value("COc1ccc(C(F)F)cc1-c1cc(C)ncc1C(=O)NS(=O)(=O)Cc1ccc([C@@H](C)OC)cc1")
63
>>> measured_value("COc1ccc(C(F)F)cc1-c1cc(C)ccc1C(=O)NS(=O)(=O)Cc1ccc(C(OC)C(F)(F)F)cc1 (stereo not shown)")
108
>>> measured_value("COc1cnc(C(F)F)cc1-c1cc(C)ncc1C(=O)NS(=O)(=O)Cc1ccc([C@@H](C)OC)cc1")
514
>>> measured_value("[2H]C([2H])([2H])O[C@@H](C)c1ccc(CS(=O)(=O)NC(=O)c2ccc(C)cc2-c2cc(C(F)F)ncc2OC)cc1")
21
>>> measured_value("[2H]C([2H])([2H])Oc1cnc(C(F)F)cc1-c1cc(C([2H])([2H])[2H])ccc1C(=O)NS(=O)(=O)Cc1ccc([C@H](C)OC([2H])([2H])[2H])cc1")
17
>>> measured_value("COc1ccc(C(F)F)cc1-c1cc(Cc2nnc(C)o2)ccc1C(=O)NS(=O)(=O)Cc1ccc(C(C)C)cc1")
202
>>> measured_value("COc1cnc(Cl)cc1-c1cc(C)ncc1C(=O)Nc1nnc(OC[C@H]2COCCO2)s1 [Ref. 1, reference compound]")
21
>>> measured_value("COc1cnc(C(F)F)cc1-c1cc(C)ccc1C(=O)NS(=O)(=O)Cc1ccc([C@H](C)OC)cc1")
17
>>> measured_value("[2H]C([2H])([2H])O[C@@H](C)c1ccc(CS(=O)(=O)NC(=O)c2ccc(C([2H])([2H])[2H])cc2-c2cc(C(F)F)c(F)nc2OC)cc1")
33
>>> measured_value("COc1ccc(C(F)F)cc1-c1cc(C)ccc1C(=O)NS(=O)(=O)Cc1ccc([C@@H](C)OC)cc1")
59
>>> measured_value("COc1ccc(C(F)F)cc1-c1cc(C)ncc1C(=O)NS(=O)(=O)Cc1ccc([C@H](C)OC)cc1")
27
>>> measured_value("COc1cnc(C(F)F)cc1-c1cc(C)ccc1C(=O)NS(=O)(=O)Cc1ccc([C@@H](C)OC)cc1")
57
>>> measured_value("COc1ccc(C(F)F)cc1-c1cc(C)ccc1C(=O)NS(=O)(=O)Cc1ccc(COC(F)F)cc1")
154
>>> measured_value("[2H]C([2H])([2H])O[C@@H](C)c1ccc(CS(=O)(=O)NC(=O)c2ccc(C([2H])([2H])[2H])cc2-c2cc(Cl)ncc2OC)cc1")
16
>>> measured_value("COc1ccc(C(F)F)cc1-c1cc(CC(=O)N(C)C)ccc1C(=O)NS(=O)(=O)Cc1ccc(C(C)C)cc1")
99
>>> measured_value("[2H]C([2H])([2H])O[C@@H](C)c1ccc(CS(=O)(=O)NC(=O)c2ccc(C([2H])([2H])[2H])cc2-c2cc(C(F)F)c(F)cc2OC)cc1")
5.2
>>> measured_value("COc1ccc(C(F)F)cc1-c1cc(CC(=O)N(C)C2CC2)ccc1C(=O)NS(=O)(=O)Cc1ccc(C(C)C)cc1")
70
>>> measured_value("[2H]C([2H])([2H])O[C@@H](C)c1ccc(CS(=O)(=O)NC(=O)c2ccc(C([2H])([2H])[2H])cc2-c2nc(C(F)F)c(F)cc2OC)cc1")
22
>>> measured_value("COc1cnc(C(F)F)cc1-c1cc(C)ncc1C(=O)NS(=O)(=O)Cc1ccc([C@H](C)OC)cc1")
189
>>> measured_value("[2H]c1c([2H])c([C@H](C)OC([2H])([2H])[2H])c([2H])c([2H])c1CS(=O)(=O)NC(=O)c1ccc(C([2H])([2H])[2H])cc1-c1cc(Cl)ncc1OC")
48
